- target desc: Leucine aminopeptidase (Plasmodium falciparum (isolate 3D7)) (UniProt Q8IL11)
- Sequence (Q8IL11 whole entry, looked up): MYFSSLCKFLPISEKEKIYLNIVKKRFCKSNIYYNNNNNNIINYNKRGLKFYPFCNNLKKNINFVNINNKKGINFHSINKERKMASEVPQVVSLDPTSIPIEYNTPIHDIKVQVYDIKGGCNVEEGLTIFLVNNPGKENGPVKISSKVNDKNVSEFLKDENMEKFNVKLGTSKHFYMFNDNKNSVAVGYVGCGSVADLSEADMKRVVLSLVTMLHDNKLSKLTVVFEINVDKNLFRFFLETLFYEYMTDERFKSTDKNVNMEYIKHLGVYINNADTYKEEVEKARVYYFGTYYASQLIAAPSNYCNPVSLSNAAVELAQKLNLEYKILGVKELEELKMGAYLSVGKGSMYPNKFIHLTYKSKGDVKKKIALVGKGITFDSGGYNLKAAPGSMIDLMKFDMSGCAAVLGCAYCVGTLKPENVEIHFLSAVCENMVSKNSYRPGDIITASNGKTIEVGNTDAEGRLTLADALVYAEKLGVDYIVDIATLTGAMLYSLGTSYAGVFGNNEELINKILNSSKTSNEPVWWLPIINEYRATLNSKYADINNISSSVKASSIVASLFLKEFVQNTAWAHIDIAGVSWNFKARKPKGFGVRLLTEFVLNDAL
- assay explanation: P. falciparum M17LAP inhibitors, primary screen, biochemical, fluorogenic H-Leu-NHMec substrate, 1536-well (AID 1619);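 further: plate controls were full reaction with DMSO carrier for no effect and no enzyme background for full effect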
- particulars: recombinant M17LAP, H-Leu-NHMec fluorogenic kinetic assay; at 30 µM; active compounds read high
The whole screen tested about 220,000 compounds, of which about 830 (0.38%) were called active. Not all results are given here. Potency and affinity values are given separately.
readout: inhibition (%)
Give bare numbers, in %.

// each molecule listed below needs its inhibition
1. CCOC(=O)c1c(-c2ccccc2)oc2ccc(O)c(CN(C)C)c12
2. Cc1sc(NC(=O)C2CCCO2)c(C#N)c1C (stereo not drawn)

Output:
[-6.67, 5.77]

---

Provide the recorded inhibition for the entries that follow.
- target desc: Leucine aminopeptidase (Plasmodium falciparum (isolate 3D7))
- assay explanation: P. falciparum M17LAP inhibitors, primary screen, biochemical, fluorogenic H-Leu-NHMec substrate, 1536-well (AID 1619);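 further: plate controls were full reaction with DMSO carrier for no effect and no enzyme background for full effect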
- particulars: recombinant M17LAP, H-Leu-NHMec fluorogenic kinetic assay; at 30 µM; active compounds read high
The campaign covered roughly 220,000 compounds. About 830 (0.38%) were called active. Only a sample is shown. Results with a measured potency or affinity are listed apart.

Answered cases to consult:
{"columns": ["compound", "target desc", "result"],
 "data": [
  ["O=C(O)CC12CC3CC(C1)CC(n1ncc(NCc4ccco4)c(Cl)c1=O)(C3)C2", "Leucine aminopeptidase (Plasmodium falciparum (isolate 3D7))", "7.19% (inactive)"],
  ["COc1ccc(NC(=O)CN2C(=O)CSC(C)C2=O)c(OC)c1 (centres undefined)", "Leucine aminopeptidase (Plasmodium falciparum (isolate 3D7))", "37.7% (inactive)"],
  ["Cc1cc2nc(SC(C)C(=O)O)[nH]c2cc1C (centres undefined)", "Leucine aminopeptidase (Plasmodium falciparum (isolate 3D7))", "19.5% (inactive)"],
  ["Cc1nc(SCC(=O)O)c2oc3ccccc3c2n1", "Leucine aminopeptidase (Plasmodium falciparum (isolate 3D7))", "1.07% (inactive)"],
  ["COC(=O)c1c(NC(=O)C2CC2)sc2c1CCCC2", "Leucine aminopeptidase (Plasmodium falciparum (isolate 3D7))", "-6.73% (inactive)"],
  ["CCCCNS(=O)(=O)c1ccc(S(=O)(=O)N2CCC3(CC2)OCCO3)cc1", "Leucine aminopeptidase (Plasmodium falciparum (isolate 3D7))", "-5.01% (inactive)"],
  ["O=C(CC12CC3CC(CC(C3)C1)C2)NC(=S)NCc1ccccc1", "Leucine aminopeptidase (Plasmodium falciparum (isolate 3D7))", "-4.21% (inactive)"],
  ["COc1ccc(C(=O)N/N=C/c2sc(=O)n(Cc3cccc(C(=O)O)c3)c2Cl)cc1", "Leucine aminopeptidase (Plasmodium falciparum (isolate 3D7))", "43.6% (inactive)"]
]}

Hi team, please reply with inhibition for each item in this list.
1. Cc1ccccc1NC(=O)CSc1nc(N)c(C#N)cc1C#N
2. CC(=O)Nc1ccc(S(=O)(=O)NCc2csc(-c3cccnc3)n2)cc1
3. Cc1ccccc1NC(=O)NCc1ccc2c(c1)OCO2
4. Cc1ccc(C(=O)Nc2ccc(F)cc2)o1
5. Cc1nn(CC(=O)NCCCN2CCOCC2)c(C)c1[N+](=O)[O-]
6. N#C/C(=C\c1ccc(Cl)cc1)c1nc2ccccc2o1
7. COCCNC(=O)C(C)OC(=O)c1cc2sccc2n1C (centres undefined)
8. CCOC(=O)c1ccc(NC(=O)CN2C(=O)CCC2=O)cc1

Output:
-1.94% (inactive)
5.75% (inactive)
5.21% (inactive)
7.81% (inactive)
3.72% (inactive)
8.5% (inactive)
3.75% (inactive)
-7.84% (inactive)

Provide each entry's inhibition from the list below.
1. CCOC(=O)NC1(Nc2cccc(Cl)c2)Oc2ccccc2O1
2. O=C(O)c1cccc(Cn2c(Cl)c(/C=N/NC(=O)c3ccc(O)cc3)sc2=O)c1
3. CCOc1ccc(CC(=O)N2CCN=C2SCc2ccc([N+](=O)[O-])cc2)cc1
4. CCOC(=O)NC(=O)CSc1nnnn1-c1ccccc1
5. COC(=O)c1cccc(Cn2c(Cl)c(/C=N/NC(=O)c3ccccc3Cl)sc2=O)c1
6. COc1ccc(/C=C2\CCCC3C2=NN(C(=O)c2scnc2C)C3c2ccc(OC)c(OC)c2)cc1OC (centres undefined)

Output:
1. 13.3% (inactive)
2. 53.6% (inactive)
3. -3.75% (inactive)
4. 0.74% (inactive)
5. 13.4% (inactive)
6. -6.36% (inactive)

Required: inhibition, one value per compound below.
1. O=C(COc1ccc(/C=N/NC(=O)c2ccc(O)cc2)cc1)Nc1cccc([N+](=O)[O-])c1
2. C=C(C)C(=O)Oc1ccc(N2C(=O)CCC2=O)cc1

Output:
1. -2.3% (inactive)
2. 15.3% (inactive)

Batch: inhibition for all items listed.
1. COc1ccc(/C=C(\CC(=O)O)c2nc3ccccc3o2)cc1
2. O=c1c(Cl)c(NCc2ccc(F)cc2)cnn1C12CC3CC(CC(C3)C1)C2
3. CCOC(=O)c1c(NC(=O)C2CCCCC2C(=O)O)sc2c1CCCCC2 (centres undefined)
4. Cc1cccc(NC(=O)COc2ccc(/C=C\c3[nH]c(=O)[nH]c(=O)c3[N+](=O)[O-])cc2)c1

Output:
48.7% (inactive)
18.3% (inactive)
33.7% (inactive)
23.7% (inactive)

# batch: return inhibition for each of the 8 compounds below
1. Cc1ccc(C)c(NC(=O)CSc2nc(C)cc(C)c2C#N)c1
2. CCOC(=O)c1ccc(-n2c(CN(CC)CC)nc3ccc([N+](=O)[O-])cc3c2=O)cc1
3. COc1ccc(-c2cc(C(F)(F)F)c(C#N)c(SCC(=O)Nc3ccccc3C#N)n2)cc1
4. [O-]/C(=C(\C(=S)Nc1ccccc1F)[n+]1ccccc1)c1ccc(-c2ccccc2)cc1
5. Cc1nc(SCC(=O)Nc2ccc(F)cc2)c(C#N)c(C)c1CC(=O)c1ccc(Br)cc1
6. Cc1cccc(C)c1NC(=S)N/N=C/c1ccccc1C(=O)O
7. CCOc1ccc(NC(=O)C2CCC(N3C(=O)C4CC=CCC4C3=O)CC2)cc1 (centres undefined)
8. CN1C(=O)c2ccc(N3CCCC3)cc2C1=O

Output:
1: 11.2% (inactive); 2: 2.23% (inactive); 3: -5.46% (inactive); 4: -0.96% (inactive); 5: -7.6% (inactive); 6: 7.19% (inactive); 7: 48% (inactive); 8: 22.5% (inactive)

Please give inhibition for each item listed below.
1. CCc1nc(N[C@H](C(=O)O)C(C)C)c2oc3ccccc3c2n1
2. O=C(O)CC12CC3CC(C1)CC(n1ncc(NCc4ccccc4)c(Cl)c1=O)(C3)C2
3. CCOC(=O)c1c(NC(=O)C2C3CCC(O3)C2C(=O)O)sc2c1CCCC2 (centres undefined)
4. Cc1cccc(NS(=O)(=O)c2cnc[nH]2)c1
5. CCn1c(N2CCN(S(=O)(=O)c3ccc(F)cc3)CC2)nc2ccccc21
6. O=C(CN1C(=O)C2CC=CCC2C1=O)Nc1ccc(S(=O)(=O)Nc2ncccn2)cc1 (centres undefined)
7. CC(Sc1nc2ccccc2[nH]1)C(=O)O (centres undefined)
8. Cc1cc(=O)[nH]c(SCC(=O)Nc2ccc(Br)cn2)n1

Output:
1: 3.02% (inactive); 2: 8.41% (inactive); 3: 14.3% (inactive); 4: -0.29% (inactive); 5: 2.95% (inactive); 6: 1.4% (inactive); 7: 4.99% (inactive); 8: 19.5% (inactive)
